Test system: SK-OV-3 ovarian
Experiment: NCI-60 one-dose screen, 48 h (100 = growth as untreated, 0 = no growth, -100 = all killed)
Settings: 10 µM unless noted
About 83,000 compounds went through this panel and 20% of them were active in at least one assay; those are over-represented in the sample as a whole.
Measured attribute: growth (%)
Give the value, in units of %, as a plain number.

For orientation, consider the following solved cases.
Which growth reading was recorded for the molecule "CN1CCN(/C(=N\c2sc(-c3ccccc3)nc2-c2ccccc2)c2ccccc2)CC1" ? 105

Which growth reading was recorded for the molecule "COc1ccc(-c2ccc(SCC(=O)NCCc3ccc(S(N)(=O)=O)cc3)nn2)cc1" ? 71.1

Which growth reading was recorded for the molecule "Cn1cc(-c2cc(N)n3nc(-c4cn(C)c5ncccc45)cc3n2)c2cccnc21" ? 99.8

Which growth reading was recorded for the molecule "Cc1cc2c(cc1Cl)C(=O)/C(=C/c1ccccc1)O2" ? 71.4

Continuing:
Which growth reading was recorded for the molecule "Cc1ccc(S(=O)(=O)c2nc(S(=O)(=O)c3ccc(C)cc3)c(N3CCC(O)CC3)s2)cc1" ? 97.6

Which growth reading was recorded for the molecule "COc1ccc(-c2ccnc(SCc3cc4ccccc4[nH]c3=O)n2)cc1" ? 82.4

Which growth reading was recorded for the molecule COc1ccc(NC(=O)[C@H](CO)NC(=O)OC(C)(C)C)cc1C(=O)Nc1cccc(C2CC(=O)c3c(cc(OC)c(OC)c3OC)O2)c1 (stereo partly drawn) ? 87.8

Which growth reading was recorded for the molecule "COc1ccc(/C=N/NC(=O)Cn2nc(Cc3ccc(OC)cc3)c3onc(C)c3c2=O)cc1" ? 25.9

Which growth reading was recorded for the molecule "CCCCCCCCc1ccc(C(=O)Nc2ccc(C)cc2C(=O)O)cc1C" ? 100

Which growth reading was recorded for the molecule COc1cc(C2CC(c3cc(OC)c(OC)c(OC)c3)=NN2C(C)=O)ccc1OCc1ccc(F)cc1 (stereo not drawn) ? 80.1

Which growth reading was recorded for the molecule Cc1nc(Nc2ncc(C(=O)Nc3c(C)cccc3Cl)s2)cc(N2CCN(CCCNC(=O)COc3ccc(C4CCC(=O)NC4=O)cc3)CC2)n1 (stereo not drawn) ? -17.9

Which growth reading was recorded for the molecule "N#Cc1cnn(C(=O)c2ccccc2Br)c1NC(=O)c1ccc(Br)cc1Cl" ? 86.7

Which growth reading was recorded for the molecule CC1(C)CC[C@]2(C(=O)Nc3ccc(F)cc3)CC[C@]3(C)C(=CCC4[C@@]5(C)C[C@@H](O)[C@H](O)[C@@](C)(CO)C5CC[C@]43C)C2C1 (stereo partly drawn) ? 24.8

Which growth reading was recorded for the molecule "CCCSc1nc(Nc2ccc(S(N)(=O)=O)cc2)c(C#N)c(-c2ccc(Cl)cc2)n1" ? -32.6

Which growth reading was recorded for the molecule "CC(=O)N1CCN(Cc2ccc3c(NNC(=O)c4cnccn4)nc4cc(F)ccc4n23)CC1" ? 25

Which growth reading was recorded for the molecule "CNC(=O)c1cc(Oc2ccc3nc(NC(=O)Nc4cccc(OC(F)(F)F)c4)sc3c2)ccn1" ? -30.7

Which growth reading was recorded for the molecule "COc1ccc(-c2ccc(SCC(=O)Nc3ccc(S(N)(=O)=O)cc3Br)nn2)cc1" ? 62.3

Which growth reading was recorded for the molecule "Cc1ccc2c(N)c(C(=O)Nc3ccc(OC(F)(F)F)cc3)sc2n1" ? 68.2

----------
Tested on: PC-3 prostate
Experiment: NCI-60 one-dose screen, 48 h (100 = growth as untreated, 0 = no growth, -100 = all killed)
Conditions: 10 µM unless noted
This is part of a sample that, as a whole, favours compounds with a hit. Of some 83,000 tested, about 20% had one in any assay.
Below, each of the molecules is paired with its reported growth value.
Give the value, in units of %, as a plain number.

For orientation, consider the following solved cases.
Which growth reading was recorded for the molecule "COc1ccc(NC(=O)Nc2ccc(OCc3ccc(F)cc3)cc2)cc1" ? 79.7

Which growth reading was recorded for the molecule "O=C(/C=C/c1cccc(OCc2ccccc2)c1)c1nc2ccccc2[nH]1" ? 25.9

Which growth reading was recorded for the molecule "CC(=O)c1cc(C(=O)c2ccccc2)n2c1ccc1ccccc12" ? 81

Continuing:
Which growth reading was recorded for the molecule "COc1ccc(C(=O)/C=C/c2ccc(Cl)c(Cl)c2)cc1S(N)(=O)=O" ? 10.1

Which growth reading was recorded for the molecule CC(C)C(C(=O)O)n1c(O)c(/C=C2/C=c3cc4c(cc3=NC2=O)OCO4)sc1=S (stereo not given) ? 106
